Data provenance is ChEMBL document CHEMBL1201862.

- protocol_details: CRF-BP/CRF-R2 complex antagonists, dose response, cell-based, uHTS hits, 384-well (AID 651639)
- Format: functional, Homo sapiens
- condition: read-out: IC50_Mean
Active and inactive are the calls of the source.
A correct response names exactly one class from active, inactive

Kindly provide the recorded test outcome for the following compound: `O=C(O)c1cnc(-c2ccccc2)nc1Sc1ccc(Cl)cc1`
inactive

----------
- protocol_details: Luminescence Cell-Based Dose Response HTS to Identify Activators of Luciferase Translation or Activity in H4 […] Cells. [Related pubchem assays: 1829 (Project Summary), 1814 (Primary HTS)]
- Assay type: functional
The source made the active and inactive calls.
metric: EC50

[
  {
    "compound_structure_string": "CCn1c(C)cc(/C=C2/NC(=O)N(c3ccccc3)C2=O)c1C",
    "EC50": "< 0.1 µM (active)"
  },
  {
    "compound_structure_string": "Cc1nn(-c2ccccc2)c2sc(C(=O)NC3CC3)cc12",
    "EC50": "48.3 µM (active)"
  },
  {
    "compound_structure_string": "CCN(CC)c1ccc(/C=N/NC(=O)Nc2nonc2N)cc1",
    "EC50": "7.18 µM (active)"
  }
]

As a next step, examine the compound that follows.
Identify EC50 associated with the compound `Cc1cc2nc(SCCN3CCOCC3)[nH]c2cc1C`
1.88 µM (active)

----------
- assay_target: Luciferin 4-monooxygenase (Photinus pyralis)
- Sequence (P08659 whole entry): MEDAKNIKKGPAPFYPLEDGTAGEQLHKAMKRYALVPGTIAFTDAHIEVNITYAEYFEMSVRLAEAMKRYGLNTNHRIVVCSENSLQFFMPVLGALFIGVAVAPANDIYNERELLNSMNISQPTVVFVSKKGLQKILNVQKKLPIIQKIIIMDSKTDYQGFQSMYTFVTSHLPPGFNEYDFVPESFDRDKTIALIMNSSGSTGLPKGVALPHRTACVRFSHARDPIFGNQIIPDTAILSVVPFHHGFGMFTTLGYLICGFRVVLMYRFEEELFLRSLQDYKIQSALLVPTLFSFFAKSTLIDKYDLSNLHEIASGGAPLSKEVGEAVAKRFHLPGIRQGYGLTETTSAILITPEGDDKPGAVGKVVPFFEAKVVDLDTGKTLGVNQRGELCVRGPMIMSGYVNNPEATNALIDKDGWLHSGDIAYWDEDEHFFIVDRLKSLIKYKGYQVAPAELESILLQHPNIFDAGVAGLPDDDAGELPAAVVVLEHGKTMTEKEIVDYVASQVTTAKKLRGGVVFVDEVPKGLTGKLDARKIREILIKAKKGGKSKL
- protocol_details: firefly luciferase enzyme inhibitors, dose response, biochemical, luminescence (AID 1891)
Active and inactive are the calls of the source.
Entries and their measured EC50 follow.

// Input: `COc1ccccc1/N=c1\oc2cc(O)ccc2cc1C(N)=O` . Output its EC50 only.
1.15 µM (active)

Read the entry `CCN(CC(=O)Nc1ccccc1OC)C(=O)Cn1cnc2ccccc2c1=O` and write its reported EC50.
> 112 µM (not active)

Provide one value: measured EC50 of `COc1cc2sc3ccc(C#CC4(O)CCCCC4)cc3c(=O)c2cc1OC`
2.35 µM (active)

Provide measured EC50 value, entry: `N=C(NOC(=O)c1ccc(Cl)cc1Cl)c1ccccn1`
1.05 µM (active)

Provide one value: measured EC50 of `Cn1c(/C=C/c2ccccc2)nc2ccccc21`
1.09 µM (active)

In one line, give reported EC50 of the entry `Cc1cc(NC(=O)c2c(Cl)cccc2Cl)no1` .
> 112 µM (not active)

# return recorded EC50 for input `CCCc1ccc(-c2ccc(F)c(N)c2)nc1`
6.33 µM (active)

Give a short answer stating reported EC50 for Cc1cccc(NC(=O)C2CCCN(C(=O)NC3CCCCC3)C2)c1C (centres undefined) .
> 112 µM (not active)

----------
- assay_target: UniProtKB P03070
- Sequence (P03070 whole entry): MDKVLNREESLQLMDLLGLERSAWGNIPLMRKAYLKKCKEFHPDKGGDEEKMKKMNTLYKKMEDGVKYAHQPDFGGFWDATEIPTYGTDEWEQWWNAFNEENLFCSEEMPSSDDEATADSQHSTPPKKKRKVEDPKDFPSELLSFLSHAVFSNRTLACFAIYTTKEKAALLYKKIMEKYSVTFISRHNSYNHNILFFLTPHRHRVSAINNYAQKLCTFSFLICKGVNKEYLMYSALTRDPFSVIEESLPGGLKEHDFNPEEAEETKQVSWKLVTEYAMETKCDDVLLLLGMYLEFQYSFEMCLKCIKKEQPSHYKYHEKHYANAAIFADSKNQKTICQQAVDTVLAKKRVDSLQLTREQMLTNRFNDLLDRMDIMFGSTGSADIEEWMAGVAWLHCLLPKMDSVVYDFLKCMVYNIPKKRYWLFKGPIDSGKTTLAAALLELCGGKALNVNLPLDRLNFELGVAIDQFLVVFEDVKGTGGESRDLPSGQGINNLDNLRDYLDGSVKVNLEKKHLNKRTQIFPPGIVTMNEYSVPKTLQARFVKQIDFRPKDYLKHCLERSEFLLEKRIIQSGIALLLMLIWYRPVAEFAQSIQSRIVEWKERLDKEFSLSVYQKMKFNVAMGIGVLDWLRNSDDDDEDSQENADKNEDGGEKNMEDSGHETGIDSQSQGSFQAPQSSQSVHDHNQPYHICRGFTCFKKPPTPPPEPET
- Type: functional, Betapolyomavirus macacae
The source made the active and inactive calls.
metric: IC50

Please report the measured IC50 for `N#Cc1ccccc1CN1C(=O)S/C(=C/c2cccn2-c2cccc(C(=O)O)c2)C1=O`
> 100 µM (active)

Item `CCCCOC(=O)Nc1ccc(N(C)C)cc1` : provide IC50
5.43 µM (active)

Provide measured IC50 value, entry: `O=C(O)C1=CC(=C(c2ccc(O)c(C(=O)O)c2)c2ccc(O)c(C(=O)O)c2)C=CC1=O`
1.93 µM (active)

Specify reported IC50 for the molecule shown: `Cc1cc(NS(=O)(=O)c2ccc(Nc3nc(-c4ccc(O)cc4)cs3)cc2)no1`
> 100 µM (active)

Provide IC50 value for the following molecule: `CN1CCC/C1=C/C=C1\SC(=S)NC1=O`
30.2 µM (active)

For the molecule `C[C@H](CCC(=O)O)[C@H]1CC[C@H]2[C@@H]3CC[C@@H]4C[C@H](O)CC[C@]4(C)[C@H]3CC[C@]12C` , report IC50.
26.1 µM (active)

----------
- assay_target: High affinity choline transporter 1 (Homo sapiens, UniProt Q9GZV3)
- Sequence (Q9GZV3 whole entry): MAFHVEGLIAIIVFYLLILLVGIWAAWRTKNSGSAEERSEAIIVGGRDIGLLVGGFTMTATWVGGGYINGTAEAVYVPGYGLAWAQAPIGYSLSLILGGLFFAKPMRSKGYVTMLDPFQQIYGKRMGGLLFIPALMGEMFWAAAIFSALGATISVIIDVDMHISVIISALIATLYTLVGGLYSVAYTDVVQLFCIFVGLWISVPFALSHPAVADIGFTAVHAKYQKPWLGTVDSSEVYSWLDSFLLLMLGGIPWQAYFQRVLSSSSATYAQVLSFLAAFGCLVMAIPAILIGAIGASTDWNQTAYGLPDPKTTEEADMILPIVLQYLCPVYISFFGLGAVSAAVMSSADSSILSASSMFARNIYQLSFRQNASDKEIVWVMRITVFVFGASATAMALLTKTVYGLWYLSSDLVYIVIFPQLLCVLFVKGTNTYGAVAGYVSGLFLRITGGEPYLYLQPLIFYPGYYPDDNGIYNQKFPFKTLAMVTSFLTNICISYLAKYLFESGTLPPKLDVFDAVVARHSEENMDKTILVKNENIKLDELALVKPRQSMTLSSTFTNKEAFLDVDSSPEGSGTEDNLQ
- protocol_details: CHT inhibitors, dose response, cell-based, 5-point CRC, membrane potential dye (AID 504840)
- Assay type: functional
Activity calls are given as the source filed them.
metric: IC50

Record excerpt, results attached:
[
  {
    "compound": "Oc1c(Br)cc(Br)cc1/C=N/Cc1ccc(F)cc1",
    "assay_target": "High affinity choline transporter 1 (Homo sapiens, UniProt Q9GZV3)",
    "IC50": "9.21 µM (active)"
  },
  {
    "compound": "O=C(NNc1nc(-c2ccccc2)cs1)c1ccccc1",
    "assay_target": "High affinity choline transporter 1 (Homo sapiens, UniProt Q9GZV3)",
    "IC50": "14.5 µM (active)"
  }
]

Turning to the following compound.
Specify reported IC50 for the compound shown: Cc1ccc(C[S+]([O-])Cc2ccc(C(=O)NC3CCCC(C)C3C)o2)cc1 (stereo not drawn)
9.8 µM (active)

----------
Recorded EC50, one value per entry.
- assay_target: RNA-binding protein pos-1 (Caenorhabditis elegans, UniProt G5EF15)
- Sequence (G5EF15 whole entry, the tested form may be a part): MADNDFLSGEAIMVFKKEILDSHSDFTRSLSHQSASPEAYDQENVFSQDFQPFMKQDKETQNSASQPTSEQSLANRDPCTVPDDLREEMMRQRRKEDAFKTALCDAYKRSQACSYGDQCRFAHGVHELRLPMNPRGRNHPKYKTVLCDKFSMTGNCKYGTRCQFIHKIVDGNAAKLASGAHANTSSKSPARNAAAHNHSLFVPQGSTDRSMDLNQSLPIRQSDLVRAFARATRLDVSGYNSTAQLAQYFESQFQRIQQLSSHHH
- protocol_details: inhibitors of POS-1/mex-3 RNA binding, dose response, biochemical, fluorescence polarization (AID 1964);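 note: purified POS-1 fused to maltose binding protein made in E. coli; potency of compounds blocking POS-1 binding to fluorescent RNA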

Solved cases below.
[
  {
    "molecule": "Cc1ccc(Oc2nc(-c3ccccn3)nc3ccccc23)cc1",
    "metric": "EC50",
    "assay_value": "> 300 µM (inconclusive)"
  },
  {
    "molecule": "COc1ccc(C2C(C#N)=C(N)OC3=C2C(=O)CCC3)c(OC)c1OC (stereo unspecified)",
    "metric": "EC50",
    "assay_value": "> 300 µM (not active)"
  },
  {
    "molecule": "O=C(NCCF)C1Nc2ccc(OC(F)(F)F)cc2C2C=CCC12 (stereo unspecified)",
    "metric": "EC50",
    "assay_value": "> 300 µM (not active)"
  },
  {
    "molecule": "CC(C)CNC(=O)c1ccc(C2SCC(=O)N2Cc2ccccc2)cc1 (stereo unspecified)",
    "metric": "EC50",
    "assay_value": "> 300 µM (not active)"
  },
  {
    "molecule": "O=C(O)CCc1ccc(-c2cccs2)n1-c1ccc(C(=O)O)cc1",
    "metric": "EC50",
    "assay_value": "> 300 µM (not active)"
  }
]

Give reported EC50 value for `N#Cc1ccccc1CN1C(=O)S/C(=C/c2cccn2-c2cccc(C(=O)O)c2)C1=O`
> 300 µM (not active)

----------
- assay_target: UniProt:P34707
- Sequence (P34707 whole entry): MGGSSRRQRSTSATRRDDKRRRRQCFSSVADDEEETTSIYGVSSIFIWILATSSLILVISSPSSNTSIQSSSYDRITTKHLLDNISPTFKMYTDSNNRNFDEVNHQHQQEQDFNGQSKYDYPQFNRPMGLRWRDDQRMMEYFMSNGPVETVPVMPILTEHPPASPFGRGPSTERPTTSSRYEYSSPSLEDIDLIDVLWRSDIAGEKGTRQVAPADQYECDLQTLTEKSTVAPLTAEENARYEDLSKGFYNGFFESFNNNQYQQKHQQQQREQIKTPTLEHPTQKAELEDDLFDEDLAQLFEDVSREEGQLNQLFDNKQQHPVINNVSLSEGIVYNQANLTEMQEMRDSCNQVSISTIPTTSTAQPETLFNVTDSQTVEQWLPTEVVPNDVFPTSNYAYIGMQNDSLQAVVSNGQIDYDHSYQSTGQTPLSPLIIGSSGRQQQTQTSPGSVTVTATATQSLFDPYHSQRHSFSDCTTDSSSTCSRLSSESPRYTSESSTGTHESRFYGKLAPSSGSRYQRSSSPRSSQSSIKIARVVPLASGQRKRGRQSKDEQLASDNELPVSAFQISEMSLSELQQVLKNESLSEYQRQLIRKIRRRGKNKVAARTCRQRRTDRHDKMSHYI
- Assay type: functional
Active and inactive are the calls of the source.
metric: IC50

Consider the following illustrative entries.
[
  {
    "molecule": "Cc1ccc(NC(=O)CSCC(=O)Nc2ccccc2C(=O)N2CCCCC2)cc1",
    "IC50": "> 100 µM (inactive)"
  },
  {
    "molecule": "CCOc1ccc2nc(NC(=O)CN3CCC(n4nnc5cc(C(F)(F)F)ccc54)CC3)sc2c1",
    "IC50": "> 100 µM (inactive)"
  }
]

Supply reported IC50 belonging to this molecule: `O=C(O)c1ccc(Nc2ccc([N+](=O)[O-])c3nonc23)cc1`
48.5 µM (active)

Note IC50 for the molecule shown: `Cc1cc(C)c(NC(=O)COC(=O)C2CCN(c3ccc(C(F)(F)F)cn3)CC2)c(Cl)c1`
> 100 µM (inactive)

Give IC50 for the following molecule: `Cc1ccc(NC(=S)NC(=O)C2CC2)c(C)c1`
> 100 µM (inactive)

Indicate its recorded IC50; the molecule in question is `Cn1ncc2c(NCCc3ccccc3)nc(Cl)nc21`
> 100 µM (inactive)

// Input: CCC1(C)Cc2ccccc2-c2nc(NCCO)n(-c3ccc(C)cc3)c(=O)c21 (stereo not given) . Output its IC50 only.
> 100 µM (inactive)

Input CCC1CCCCN1CCN1C(=O)C2C(C(=O)Nc3ccc(OC)cc3)C3C=CC2(O3)C1C(=O)NC1CCCCC1 (stereo not given) , output reported IC50.
> 100 µM (inactive)

Please give the documented IC50 of `c1ccc(-c2ccc(-c3ccncn3)cc2)cc1`
15.2 µM (active)

Return IC50 (reported value) for this molecule: `CCOC(=O)N1CCN(C(=O)Nc2ccc(Cl)cc2)CC1`
> 100 µM (inactive)
